system: CP250; test: qHTS profiling for inhibitors of Plasmodium falciparum proliferation (AID 504749); note: nearly all actives have a fitted effect of over 60% in size; details: P. falciparum in erythrocytes, SYBR Green DNA, 72 h; series mostly up to 28.7 µM
Records with an inconclusive call do not appear. Active and inactive are the calls of the source. Calls come from the whole dose curve; as a rule, active = well fitted inhibition curve with a large enough effect; inconclusive = small, poorly fitted or top-dose-only effect; inactive = flat fitted curve, though single readings scatter.
Classes used: YES (active), NO (inactive)

>>> class("COc1ccc(/C=C/C(=O)O)cc1")
"NO"
>>> class("CC(C)Cc1ccc([C@@H](C)C(=O)NS(C)(=O)=O)cc1")
"NO"
>>> class("CCCCCc1ccc(C)cc1O")
"NO"
>>> class("O=P(O)(O)OC[C@H]1O[C@](O)(COP(=O)(O)O)[C@@H](O)[C@@H]1O")
"NO"
>>> class("c1ccc(-n2cnnn2)cc1")
"NO"
>>> class("COC(=O)CCC[N+](C)(C)C")
"NO"
>>> class("CC(C)c1nc(N(C)S(C)(=O)=O)nc(-c2ccc(F)cc2)c1/C=C/C(O)CC(O)CC(=O)O (centres undefined)")
"NO"
>>> class("CCCCCCCCCCCCCCCCCCCCCC(=O)Nc1ccn([C@@H]2O[C@H](CO)[C@@H](O)[C@@H]2O)c(=O)n1")
"NO"
>>> class("O[C@@H]([C@H](O)[C@H](O)CBr)[C@H](O)CBr")
"NO"
>>> class("CCc1ncnc2cc(OC)c(OC)cc12")
"NO"
>>> class("OCc1ccccc1")
"YES"
>>> class("CC(C)=CCC/C(C)=C/CC/C(C)=C/CC/C=C(\\C)CC/C=C(\\C)CCC=C(C)C")
"NO"
>>> class("CN(CCO)CC(O)Cn1cnc2c1c(=O)n(C)c(=O)n2C (centres undefined) (tested in a mixture with another compound)")
"NO"
>>> class("CCCCC[C@H](O)/C=C/[C@@H]1[C@H]2C/C(=C/CCCC(=O)O)O[C@H]2C[C@H]1O")
"NO"
>>> class("C[C@H](O)CN(C)C")
"NO"
>>> class("CCCCCCCCCCCC(=O)N(CCO)CCO")
"NO"
>>> class("CN(Cc1ccccc1)Cc1ccccc1")
"NO"
>>> class("CC12CCC(C[N+](C)(CCC[N+](C)(C)C)C1)C2(C)C (centres undefined)")
"NO"
>>> class("CS(=O)(=O)OCC(O)C(O)COS(C)(=O)=O (centres undefined)")
"NO"
>>> class("CC(=O)N=c1sc(S(N)(=O)=O)nn1C")
"NO"
>>> class("Cc1c(C)c2c(c(C)c1OC(=O)CCC(=O)O)CC[C@@](C)(CCC[C@H](C)CCC[C@H](C)CCCC(C)C)O2")
"NO"
>>> class("CN1C(=O)C[C@@H](C(=O)N[C@@H](Cc2cnc[nH]2)C(=O)N2CCC[C@H]2C(N)=O)NC1=O")
"NO"
>>> class("C=CCCCCCCCCC(=O)OC")
"NO"
>>> class("O=C(O)Cc1nn(Cc2ccc(Br)cc2F)c(=O)c2ccccc12")
"NO"
